Listed compounds paired with reported cell viability
tested on: K562; assay: cell viability relative to vehicle control; higher = less cytotoxic; conditions: 10 µM; SRSF2 genotype: SRSF2 wt/wt;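 note: after 48 h exposure read by CellTiter-Glo luminescence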
Please state the figure in %; there is no need to write the unit.

Record excerpt, results attached:
compound="O=C(Nc1ccc(Oc2ccc(Cl)cc2)c(Cl)c1)c1cc(I)cc(I)c1O [Rafoxanide]" readout_kind="cell viability" readout_units=% reported=97.9
compound=CCCc1cc(C)[nH]c(=O)c1CNC(=O)c1cc(-c2ccc(N3CCN(C(C)C)CC3)nc2)cc2c1cnn2C(C)C readout_kind="cell viability" readout_units=% reported=30.5
compound=Cc1cnc(-c2cc(N3CCN(C(=O)CCS(C)(=O)=O)CC3)ncc2Cl)c(C)c1 readout_kind="cell viability" readout_units=% reported=96.3

QUERY: Param readout= cell viability; system= K562; entry= `CO/N=C1\C[C@]2(C[C@@H]3C[C@@H](C/C=C(\C)C[C@@H](C)/C=C/C=C4\CO[C@@H]5[C@H](O)C(C)=C[C@@H](C(=O)O3)[C@]45O)O2)O[C@H](/C(C)=C/C(C)C)[C@H]1C` ; returns value.
RESULT: 66.4

QUERY: Param readout= cell viability; system= K562; entry= `O=S1(=O)CCN(CN2CCS(=O)(=O)NC2)CN1` ; returns value.
RESULT: 108

QUERY: Param readout= cell viability; system= K562; entry= `N[C@@H]1CCCN(c2c(/C=C3\SC(=O)NC3=O)cccc2-c2ccccc2)C1` ; returns value.
RESULT: 81.1

* * *

Listed compounds paired with reported cell viability
test system: OCI-AML2; experiment: cell viability relative to vehicle control; higher = less cytotoxic; details: 10 µM; SRSF2 genotype: wt/wt
Counter-ions that a name gives are not always drawn.
Please state the figure in %; there is no need to write the unit.

compound=COc1cccc(/C=N/N(C(=O)C(F)(F)F)c2ccc(C)cc2C)c1 readout_kind="cell viability" readout_units=% reported=106

QUERY: Fill blank: measured cell viability of the compound CC(C)(N)C(=O)N[C@H](COCc1ccccc1)C(=O)N1CCC2(CC1)CN(S(C)(=O)=O)c1ccccc12 [Ibutamoren mesylate] is ____.
RESULT: 78.9

QUERY: Fill blank: measured cell viability of the compound `NCC(=O)Nc1ccc(-n2nc(C(F)(F)F)cc2-c2ccc3c(ccc4ccccc43)c2)cc1` is ____.
RESULT: 0.23

QUERY: Fill blank: measured cell viability of the compound Cn1cnc2c(F)c(Nc3ccc(Br)cc3Cl)c(C(=O)NOCCO)cc21 [AZD6244 (Selumetinib)] is ____.
RESULT: 43.6

* * *

Listed compounds paired with reported cell viability
system: MOLM14; assay: cell viability relative to vehicle control; higher = less cytotoxic; settings: 10 µM; SRSF2 genotype: SRSF2 P95H/wt
Where a name gives a salt, the structure may show the parent alone.
Please state the figure in %; there is no need to write the unit.

Record excerpt, results attached:
compound=CCCCCCCCCCCCc1ccc(S(=O)(=O)Nc2nncs2)cc1 readout_kind="cell viability" readout_units=% reported=105
compound=O=C1C(=Cc2cccnc2)C(=O)c2ccccc21 readout_kind="cell viability" readout_units=% reported=89

Now consider the entry below.
QUERY: Param readout= cell viability; system= MOLM14; entry= CCCCS(=O)(=O)N[C@@H](Cc1ccc(OCCCCC2CCNCC2)cc1)C(=O)O [Tirofiban Hydrochloride] ; returns value.
RESULT: 101

* * *

test system: MOLM14; test: cell viability relative to vehicle control; higher = less cytotoxic; conditions: 10 µM; SRSF2 genotype: SRSF2 P95H/wt
readout_kind: cell viability (%)
Please state the figure in %; there is no need to write the unit.

compound=O=S(=O)(c1ccc2c(c1)C(=NO)c1cc(S(=O)(=O)N3CCCCC3)ccc1-2)N1CCCCC1 target_system=MOLM14 reported=0.31
compound="O=C(O)/C=C/c1ccc(O)c(O)c1 [Caffeic acid]" target_system=MOLM14 reported=97.7
compound="CNC(CC(=O)O)C(=O)O [NMDA (N-Methyl-D-aspartic acid)]" target_system=MOLM14 reported=100

QUERY: Fill blank: measured cell viability of the compound COc1cc2nccc(Oc3ccc(NC(=O)Nc4cc(C)on4)c(Cl)c3)c2cc1OC [Tivozanib (AV-951)] is ____.
RESULT: 11.3

QUERY: Fill blank: measured cell viability of the compound CC(=O)O[C@]1(C(C)=O)CC[C@H]2[C@@H]3CCC4=CC(=O)CCC4=C3[C@@H](c3ccc(N(C)C)cc3)C[C@@]21C [Ulipristal acetate] is ____.
RESULT: 82.3

* * *

test system: MOLM14; experiment: cell viability relative to vehicle control; higher = less cytotoxic; conditions: 10 µM; SRSF2 genotype: SRSF2 wt/wt
Structures can show the parent of a compound that is named as a salt.
Listed compounds paired with reported cell viability
Please state the figure in %; there is no need to write the unit.

compound="COc1cc(Nc2ncc(F)c(Nc3ccc4c(n3)NC(=O)C(C)(C)O4)n2)cc(OC)c1OC [R406(free base)]" reported=16
compound=CC[C@H]1OC(=O)[C@H](C)[C@@H](O[C@H]2C[C@@](C)(OC)[C@@H](O)[C@H](C)O2)[C@H](C)[C@@H](O[C@@H]2O[C@H](C)C[C@H](N(C)C)[C@H]2O)[C@](C)(O)C[C@@H](C)[C@@H]2N[C@@H](COCCOC)O[C@H]([C@H]2C)[C@]1(C)O reported=102
compound=C[C@H](Nc1ncnc2[nH]cnc12)c1cc2ccc(F)cc2nc1-c1ccccn1 reported=67
compound="O=C(c1ccc(F)cc1)N1CCCC(c2nc(-c3ccc(F)cc3)no2)C1 (stereo not drawn)" reported=84.1
compound="C=C1C[C@@]23CC[C@H]4[C@@](C)(CCC[C@@]4(C)C(=O)O[C@@H]4O[C@H](CO)[C@@H](O)[C@H](O)[C@H]4O)[C@@H]2CC[C@]1(O[C@@H]1O[C@H](CO)[C@@H](O)[C@H](O[C@@H]2O[C@H](CO)[C@@H](O)[C@H](O)[C@H]2O)[C@H]1O[C@@H]1O[C@H](CO)[C@@H](O)[C@H](O)[C@H]1O)C3 [Rebaudioside A]" reported=102
compound=COc1cc2c(cc1OC)[C@@H]1Cc3ccc(OC)c(OC)c3CN1CC2 reported=95.2

QUERY: Fill blank: measured cell viability of the compound `O=C(c1ccc(F)cc1)C1CCN(CCn2c(=O)[nH]c3ccccc3c2=O)CC1` is ____.
RESULT: 107

QUERY: Fill blank: measured cell viability of the compound Nc1c(Br)cc(Br)cc1CN[C@H]1CC[C@H](O)CC1 [Ambroxol HCl] is ____.
RESULT: 107

QUERY: Fill blank: measured cell viability of the compound `C[C@H]1C[C@H]2[C@@H]3CCC4=CC(=O)C=C[C@]4(C)[C@@]3(F)[C@@H](O)C[C@]2(C)[C@@]1(O)C(=O)CO` is ____.
RESULT: 86

* * *

system: MOLM14; experiment: cell viability relative to vehicle control; higher = less cytotoxic; settings: 10 µM; SRSF2 genotype: SRSF2 wt/wt
Counter-ions that a name gives are not always drawn.
Binary label based on cell viability with cut-off 80%: below gives t, not below gives f.

compound="CCN(CC)CCNC(=O)c1c(C)[nH]c(/C=C2\\C(=O)Nc3ccc(-c4csc(-c5ccccc5)n4)cc32)c1C [Amcasertib (BBI503)]" classification=t
compound="Cc1cc2c3c([n+](C)c4ccc(F)cc4c3c1)-c1cc(F)ccc1N2C [RHPS 4 methosulfate]" classification=t
compound="COc1cc2nc(N3CCN(C(=O)C4CCCO4)CC3)nc(N)c2cc1OC (configuration not stated) [Terazosin HCl]" classification=f
compound="Cc1onc(-c2c(Cl)cccc2Cl)c1C(=O)N[C@@H]1C(=O)N2[C@@H]1SC(C)(C)[C@@H]2C(=O)O [Dicloxacillin Sodium]" classification=f
compound=Cc1cc(Nc2ncnc3ccc(NC4=NC(C)(C)CO4)cc23)ccc1Oc1ccn2ncnc2c1 classification=f

Next:
QUERY: Here's an entry: CC#CC(=O)N1CC[C@@H](n2c(=O)n(-c3ccc(Oc4ccccc4)cc3)c3c(N)ncnc32)C1 [ONO-4059 (GS-4059) hydrochloride] . Is its cell viability below 80%?
RESULT: f

* * *

Listed compounds paired with reported cell viability
test system: MARIMO; assay: cell viability relative to vehicle control; higher = less cytotoxic; conditions: 10 µM; SRSF2 genotype: SRSF2 wt/wt
Please state the figure in %; there is no need to write the unit.

compound="COc1c(N2C[C@@H]3CCCN[C@@H]3C2)c(F)cc2c(=O)c(C(=O)O)cn(C3CC3)c12 [Moxifloxacin]" readout_kind="cell viability" readout_units=% reported=99.8
compound="Cn1nnc(-c2ccc(-c3ccc(N4C[C@H](CO)OC4=O)cc3F)cn2)n1 [Tedizolid]" readout_kind="cell viability" readout_units=% reported=88.1
compound="CCOC(=O)C1=C[C@]2(CC)CCCN3CCc4c(n1c1ccccc41)[C@@H]32 [Vinpocetine (Cavinton)]" readout_kind="cell viability" readout_units=% reported=110

QUERY: Fill blank: measured cell viability of the compound CCOc1ccc2ccccc2c1C(=O)N[C@@H]1C(=O)N2[C@@H]1SC(C)(C)[C@@H]2C(=O)O [Nafcillin Sodium] is ____.
RESULT: 115

QUERY: Fill blank: measured cell viability of the compound O=c1c(O)c(-c2ccc(O)c(O)c2)oc2cc(O)ccc12 [Fisetin (Fustel)] is ____.
RESULT: 100

QUERY: Fill blank: measured cell viability of the compound O=C1C[C@@H](c2ccc(O[C@@H]3O[C@H](CO)[C@@H](O)[C@H](O)[C@H]3O)cc2)Oc2cc(O)ccc21 [Liquiritin] is ____.
RESULT: 90.1

QUERY: Fill blank: measured cell viability of the compound O=C(O)c1c[nH]c2ccccc12 [Indole-3-carboxylic acid] is ____.
RESULT: 110

QUERY: Fill blank: measured cell viability of the compound COC(=O)c1cc(OC)c2c(c1-c1c(C(=O)OC)cc(OC)c3c1OCO3)OCO2 [Bifendate] is ____.
RESULT: 101
